The following compounds are shown together with reported viability at 10 min values.
assay: Induction of apoptosis in human platelets assessed as viable cells after 10 mins using Annexin V/propidium iodide by flow cytometry (reference value: 89.61 %); assay type: cell-based, Platelet; conditions: read-out: Activity
Response body: numeric value in %, unit text excluded.

INSERT INTO results (compound, readout_label, value_reported) VALUES
  ('NC(=S)N/N=C/c1ccc(Sc2cccc(C(F)(F)F)c2)o1', 'viability at 10 min', 90.9),
  ('NC(=S)N/N=C/c1ccc(Sc2ccc(C(F)(F)F)cc2[N+](=O)[O-])o1', 'viability at 10 min', 87.2),
  ('NC(=S)N/N=C/c1ccc(Sc2c(F)c(F)c(C(F)(F)F)c(F)c2F)o1', 'viability at 10 min', 87.4),
  ('NC(=S)N/N=C/c1ccc(Sc2ccc(C(F)(F)F)cc2)o1', 'viability at 10 min', 79.4),
  ('O=C(Cn1ccnc1[N+](=O)[O-])NCc1ccccc1 [BENZNIDAZOLE]', 'viability at 10 min', 76.9);

I'd like to know its viability at 10 min. The compound in question is NC(=S)N/N=C/c1ccc(Sc2ccccc2C(F)(F)F)o1
82.6

###

assay: Activation of human platelets assessed as CD62P expression at 3.9 ug/ml by flow cytometry relative to control; format: cell-based; conditions: platelet
readout-label: Activity (%)
Only the number, expressed in %, is required.

Completed entries (count: 4):
INSERT INTO results (smiles_entry, readout_label, unit, value_reported) VALUES
  ('NC(=S)N/N=C/c1ccc(Sc2ccc(C(F)(F)F)cc2[N+](=O)[O-])o1', 'Activity', '%', 23.63),
  ('O=C(Cn1ccnc1[N+](=O)[O-])NCc1ccccc1', 'Activity', '%', 42.51),
  ('NC(=S)N/N=C/c1ccc(Sc2ccccc2C(F)(F)F)o1', 'Activity', '%', 22.14),
  ('NC(=S)N/N=C/c1ccc(Sc2c(F)c(F)c(C(F)(F)F)c(F)c2F)o1', 'Activity', '%', 23.35);

# get_value(readout='Activity', item= NC(=S)N/N=C/c1ccc(Sc2cccc(C(F)(F)F)c2)o1 )
19.06

Input NC(=S)N/N=C/c1ccc(Sc2ccc(C(F)(F)F)cc2)o1
18.56

###

test: Induction of apoptosis in human monocytes assessed as necrotic cells using Annexin V/propidium iodide by flow cytometry (reference value: 0.02 %); format: cell-based; conditions: monocyte
Property: Activity; scope: individual compounds
Give the number; % is assumed, so skip it.

Below: 4 compounds and their reported Activity.
INSERT INTO results (smiles_entry, unit, value_reported) VALUES
  ('NC(=S)N/N=C/c1ccc(Sc2c(F)c(F)c(C(F)(F)F)c(F)c2F)o1', '%', 0.62),
  ('NC(=S)N/N=C/c1ccc(Sc2cccc(C(F)(F)F)c2)o1', '%', 2.57),
  ('NC(=S)N/N=C/c1ccc(Sc2ccccc2C(F)(F)F)o1', '%', 0.24),
  ('NC(=S)N/N=C/c1ccc(Sc2ccc(C(F)(F)F)cc2)o1', '%', 1.18);

Reported Activity, compound NC(=S)N/N=C/c1ccc(Sc2ccc(C(F)(F)F)cc2[N+](=O)[O-])o1 : ____
0.7

Then O=C(Cn1ccnc1[N+](=O)[O-])NCc1ccccc1 ?
0.51
